# TARGET_DESC: human TRPV1 (Homo sapiens)
# Sequence (Q8NER1 whole entry): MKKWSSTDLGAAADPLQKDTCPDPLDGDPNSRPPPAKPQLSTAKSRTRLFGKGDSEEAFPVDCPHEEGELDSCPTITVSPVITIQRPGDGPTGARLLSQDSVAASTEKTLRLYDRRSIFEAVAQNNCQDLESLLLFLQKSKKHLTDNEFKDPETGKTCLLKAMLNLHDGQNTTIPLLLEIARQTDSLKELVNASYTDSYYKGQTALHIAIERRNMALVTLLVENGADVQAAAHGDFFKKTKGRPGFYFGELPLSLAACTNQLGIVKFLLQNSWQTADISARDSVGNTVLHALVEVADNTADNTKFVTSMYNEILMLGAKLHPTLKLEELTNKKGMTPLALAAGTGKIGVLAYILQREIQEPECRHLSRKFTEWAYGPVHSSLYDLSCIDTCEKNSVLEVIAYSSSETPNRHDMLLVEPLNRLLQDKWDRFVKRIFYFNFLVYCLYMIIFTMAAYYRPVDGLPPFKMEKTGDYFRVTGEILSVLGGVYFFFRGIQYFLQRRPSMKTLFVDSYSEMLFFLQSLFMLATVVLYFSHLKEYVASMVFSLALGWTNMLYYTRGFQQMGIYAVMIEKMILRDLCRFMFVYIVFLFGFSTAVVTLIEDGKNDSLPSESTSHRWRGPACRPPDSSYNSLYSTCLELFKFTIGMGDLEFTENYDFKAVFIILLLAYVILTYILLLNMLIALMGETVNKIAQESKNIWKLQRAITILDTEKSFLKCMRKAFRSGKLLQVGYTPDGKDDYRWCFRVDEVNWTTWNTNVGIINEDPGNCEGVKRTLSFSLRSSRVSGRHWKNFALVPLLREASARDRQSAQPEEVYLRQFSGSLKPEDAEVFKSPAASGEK
# ASSAY_PROTOCOL: Functional assay: block of capsaicin-induced Ca2+ influx, human assay (hTRPV1/HEK293, FLIPR)
# MEASUREMENT_PARAMETERS: hTRPV1/HEK293 cells, 150 nM capsaicin challenge, Fluo-3 fluorescence; mean; > value = solubility limit in assay medium
METRIC_NAME: IC50

MOLECULE	IC50
Cc1cccc(C)c1Nc1nc2c(NC3Cc4ccccc4C3)ncnc2s1 [Example 41]	> 6.67 µM
CC1CCCN1c1nc(Nc2ccc(C(F)(F)F)cc2)c2nc(Nc3c(Cl)cccc3Cl)sc2n1 (racemic) [Example 105]	0.024 µM
Cc1cccc(C)c1Nc1nc2c(NCc3ccccc3)ncnc2s1 [Example 43]	> 6.67 µM
Cc1ccc(Nc2ncnc3sc(Nc4c(C)cccc4C)nc23)cc1C [Example 165]	> 6.67 µM

Q: Dear colleague, I am looking for the recorded IC50 of the following molecule: Cc1nc(Nc2ccc(NS(C)(=O)=O)cc2)c2nc(Nc3c(C)cccc3C)sc2n1 [Example 174]
Ans: > 20 µM

Q: Requested read-out: IC50. Entry: Cc1nc(Nc2ccccc2)c2nc(Nc3c(Cl)cccc3Cl)sc2n1 [Example 170]
Ans: > 20 µM

Q: GET /values?readout=IC50&item= Cc1cccc(C)c1Nc1nc2c(Nc3ccccc3C(F)(F)F)ncnc2s1 [Example 36]
Ans: > 6.67 µM

----------
# TARGET_DESC: rat TRPV1 (Rattus norvegicus, UniProt O35433)
# Sequence (O35433 whole entry): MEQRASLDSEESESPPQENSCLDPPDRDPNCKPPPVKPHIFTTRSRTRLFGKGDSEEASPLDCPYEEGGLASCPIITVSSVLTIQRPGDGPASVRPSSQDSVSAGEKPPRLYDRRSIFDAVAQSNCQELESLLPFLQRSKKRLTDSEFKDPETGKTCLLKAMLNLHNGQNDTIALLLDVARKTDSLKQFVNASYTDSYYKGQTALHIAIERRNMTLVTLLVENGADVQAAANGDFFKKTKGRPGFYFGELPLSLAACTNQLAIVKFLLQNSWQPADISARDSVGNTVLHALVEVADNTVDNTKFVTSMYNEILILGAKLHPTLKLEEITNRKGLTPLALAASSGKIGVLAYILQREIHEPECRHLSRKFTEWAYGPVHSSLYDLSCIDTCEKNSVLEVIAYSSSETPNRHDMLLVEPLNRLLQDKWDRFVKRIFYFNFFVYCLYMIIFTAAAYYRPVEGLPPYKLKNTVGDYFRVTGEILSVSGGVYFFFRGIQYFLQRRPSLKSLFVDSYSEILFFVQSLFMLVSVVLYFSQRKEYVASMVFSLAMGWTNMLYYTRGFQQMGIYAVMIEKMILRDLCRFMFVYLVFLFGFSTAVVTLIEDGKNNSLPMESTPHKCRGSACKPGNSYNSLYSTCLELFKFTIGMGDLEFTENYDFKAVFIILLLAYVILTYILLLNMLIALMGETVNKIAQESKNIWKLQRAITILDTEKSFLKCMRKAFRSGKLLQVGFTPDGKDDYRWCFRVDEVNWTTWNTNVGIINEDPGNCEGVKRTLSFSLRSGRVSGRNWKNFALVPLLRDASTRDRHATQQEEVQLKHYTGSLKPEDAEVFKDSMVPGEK
# ASSAY_PROTOCOL: Functional assay: block of capsaicin-induced Ca2+ influx, rat assay (rTRPV1/HEK293, FLIPR)
# MEASUREMENT_PARAMETERS: rTRPV1/HEK293 cells, capsaicin challenge, Fluo-3 fluorescence; mean; > value = solubility limit in assay medium
pIC50: −log10 of the molar value.
METRIC_NAME: pIC50

// solved cases for pIC50 follow
COMPOUND	pIC50
C[C@H]1COCCN1c1nc(Nc2ccc(C(F)(F)F)cc2)c2nc(Nc3c(Cl)cccc3Cl)sc2n1	7.72
FC(F)(F)c1ccc(Nc2nc(NCC3CC3)nc3sc(Nc4c(Cl)cccc4Cl)nc23)cc1	8.40
COC(=O)c1cc(Cl)c(Nc2nc3c(Nc4ccc(C(F)(F)F)cc4)ncnc3s2)c(Cl)c1	5.50

A = FC(F)(F)c1ccc(Nc2ncnc3sc(Nc4ccccc4Cl)nc23)cn1
B = Cc1ccccc1Nc1nc2c(Nc3ccc(S(=O)(=O)N4CCOCC4)cc3)ncnc2s1
Q: Form field 'greater pIC50' accepts A or B ; which applies? // respond with label for picked entry
Ans: B

a = Cc1ccccc1Nc1nc2c(Nc3ccc(S(=O)(=O)N4CCCC4)cc3)ncnc2s1
b = Cc1cccc(C)c1Nc1nc2c(Nc3ccc(SC(C)C)cc3)ncnc2s1
Q: Please let me know which one, a or b , has a lower measured pIC50 value. Please respond with the label that marks your chosen entry.
Ans: b
(b: 7.25, a: 8.70)

a = CC1CCCCN1c1nc(Nc2ccc(C(F)(F)F)cc2)c2nc(Nc3c(Cl)cccc3Cl)sc2n1 (racemic)
b = CSc1ccc(Nc2nc(C)nc3sc(Nc4c(Cl)cccc4Cl)nc23)cc1
c = Cc1cccc(C)c1Nc1nc2c(Nc3ccccc3)ncnc2s1
Q: Hey, can you sort those compounds up there by pIC50, smallest first? // ordering of labels required in reply
Ans: c, a, b

Ref: patent US20080004253A1
